TARGET_DESC: T1, Human CD39-L3 (human, UniProt O75355 44-485, limits assumed)
T1 construct: Recombinant protein coated on ELISA plates; also called NTPDase3; ENTPD3
T1 sequence: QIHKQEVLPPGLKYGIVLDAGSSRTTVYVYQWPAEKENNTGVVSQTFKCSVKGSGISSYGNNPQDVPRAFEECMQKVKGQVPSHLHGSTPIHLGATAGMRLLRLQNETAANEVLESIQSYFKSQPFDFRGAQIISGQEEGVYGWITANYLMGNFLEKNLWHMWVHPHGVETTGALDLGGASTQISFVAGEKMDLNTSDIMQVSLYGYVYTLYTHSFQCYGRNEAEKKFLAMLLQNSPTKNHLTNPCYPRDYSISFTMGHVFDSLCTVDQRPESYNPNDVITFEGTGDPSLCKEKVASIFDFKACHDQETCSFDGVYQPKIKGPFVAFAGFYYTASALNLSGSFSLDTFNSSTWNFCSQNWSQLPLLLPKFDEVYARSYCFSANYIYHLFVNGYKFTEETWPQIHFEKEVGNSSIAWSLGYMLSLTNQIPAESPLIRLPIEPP
TEST_METHOD_NOTES: ELISA, recombinant isoform coated, dose range of antibody
REPORTED_ENDPOINT: binding result

# BINDER, RESULT
records = [
    ("mAb2 (antibody, human IgG1, V domains shown, Produced as Fc silent recombinant human IgG1 with heavy chain N297Q (Kabat EU numbering) and huCk constant domain; also called anti-CD39 antibody mAb2) VH: QVQLVQSGSELKKPGASVKVSCKASGYTFTHYGMNWVRQAPGQGLKWMGWINTYTGEPTYADDFKGRFVFSLDTSVSTAYLQISSLKAEDTAVYYCARRRYEGNYVFYYFDYWGQGTTVTVSS VL: DIQMTQSPSSLSASVGDRVTITCRASENIYSYFSWYQQKPGKAPKLLIYTAKTLAEGVPSRFSGSGSGTDFTLTISSLQPEDFATYYCQHHYVTPYTFGGGTKVEIK", "no binding"),
    ("mAb1 (antibody, human IgG1, V domains shown, Produced as Fc silent recombinant human IgG1 with heavy chain N297Q (Kabat EU numbering) and huCk constant domain; also called anti-CD39 antibody mAb1) VH: QVQLVQSGSELKKPGASVKVSCKASGYTFTHYGMNWVRQAPGQGLEWMGWINTYTGEPTYADDFKGRFVFSLDTSVSTAYLQISSLKAEDTAVYYCARRRYEGNYVFYYFDYWGQGTTVTVSS VL: DIQMTQSPSSLSASVGDRVTITCRASENIYSYFSWYQQKPGKAPKLLIYTAKTLAEGVPSRFSGSGSGTDFTLTISSLQPEDFATYYCQHHYVTPYTFGGGTKVEIK", "no binding"),
    ("mAb3 (antibody, human IgG1, V domains shown, Produced as Fc silent recombinant human IgG1 with heavy chain N297Q (Kabat EU numbering) and huCk constant domain; also called anti-CD39 antibody mAb3) VH: QVQLVQSGSELKKPGASVKVSCKASGYTFTHYGMNWVRQAPGKGLKWMGWINTYTGEPTYADDFKGRFVFSLDTSVSTAYLQISSLKAEDTAVYYCARRRYEGNYVFYYFDYWGQGTTVTVSS VL: DIQMTQSPSSLSASVGDRVTITCRASENIYSYFSWYQQKPGKAPKLLIYTAKTLAEGVPSRFSGSGSGTDFTLTISSLQPEDFATYYCQHHYVTPYTFGGGTKVEIK", "no binding"),
]
